# System: Tumorart P 388 (Leukämie)
# TEST_METHOD_NOTES: Survival of mice bearing P 388 leukemia (NCI protocol 1200), T/C
# Assay type: in vivo, Maus
# TEST_SETTINGS: Mus musculus, P388, 100 mg/kg per single dose, 9 doses; first test series; read-out: Verlängerungsrate T/C (Testergebnis in % T/C)
# Text: Die nachfolgenden Versuche wurden durchgeführt nach Testvorschriften des National Cancer Institute Bethesda, Maryland 200014, veröffentlicht in Cancer Chemotherapy Reports" Part. 3, September 1972, Vol. 3, Nr. 2. Als Wirksubstanz wurde 1,3-Diglycidyl-benzimidazolon des i vorstehenden Beispiels 1 verwendet. Die Substanz wurde als wäßrige, 1%ige Injektionslösung unmittelbar vor der Applikation frisch hergestellt. […]
For each entry below, report its response vs control in vivo at 100 mg/kg value.

Item CC1(c2ccccc2)C(=O)N(CC2CO2)C(=O)N1CC1CO1 (stereo not drawn) [R5 CH3-R6 C6H5-, Diglycidyl-5-phenyl-5-methyl-hydantoin] : provide response vs control in vivo at 100 mg/kg
160%

Given the compound CCCCCC(=O)c1ccc2c(c1)n(CC1CO1)c(=O)n2CC1CO1 (stereo not drawn) [R2 -H R3 -C-C5H11 " O, N,N-Diglycidyl-5-caproyl-benzimidazolon] , write its reported response vs control in vivo at 100 mg/kg.
198%

Using known records, supply response vs control in vivo at 100 mg/kg for O=c1n(CC2CO2)c2ccccc2n1CC1CO1 (stereo not drawn) [Beispiel 1, N,N'-Digylcidyl-Benzimidazolon]
181%
